Quick reference: Kd of the listed items.
- measurement target: T1, Human TIGIT-His (human, UniProt Q495A1 22-141, biotinylated in the ForteBio Fab assay)
- T1 construct: bought (Creative Biomart); also called Biotinylated Human TIGIT HIS; TIGIT-His monomer; not shown: His tag
- T1 sequence (looked up): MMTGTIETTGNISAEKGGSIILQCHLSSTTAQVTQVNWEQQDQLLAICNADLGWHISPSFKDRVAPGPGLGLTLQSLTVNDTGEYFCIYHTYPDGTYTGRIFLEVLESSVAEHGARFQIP
- method notes: ForteBio BLI, Fab KD, monovalent
Give the quantity in nM, number only.

>>> recorded_value("Fab of anti-TIGIT clone 29494 (Fab, V domains shown) VH: QVQLQESGPGLVKPSETLSLTCTVSGGSISSGSYYLAWIRQPPGKGLEWIGSIFRSGSTYYNPSLESRVTISVDTSKNQFSLKLSSVTAADTAVYYCAIEGANFKDFGYVAFDIWGQGTMVTVSS VL: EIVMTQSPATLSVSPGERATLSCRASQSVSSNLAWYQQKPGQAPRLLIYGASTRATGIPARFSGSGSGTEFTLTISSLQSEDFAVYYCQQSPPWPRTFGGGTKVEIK")
1.66

// below: Kd requested for another binder
Please look up its Kd: Fab of anti-TIGIT clone 29513 (Fab, V domains shown) VH: QVQLVQSGAEVKKPGSSVKVSCKASGGTFQNYAISWVRQAPGQGLEWMGVIVPIFGTANYAQKFQGRVTVTADESTSTAYMELSSLRSEDTAVYYCARLHLGQKAYYGMDVWGQGTTVTVSS VL: DIQMTQSPSSLSASVGDRVTITCRASQSISSYLNWYQQKPGKAPKLLIYAASSLQSGVPSRFSGSGSGTDFTLTISSLQPEDFATYYCQQRYVFPPTFGGGTKVEIK 0.774
